These data points were gathered from ChEMBL document CHEMBL3885881.

- Organism: Rattus norvegicus
- protocol.summary: DrugMatrix - Regimen: Daily Repeat
- Assay type: toxicity, organism-based, Sprague-Dawley
- Design: regimen Daily Repeat, gender Male, age 6-8 weeks
- details: in vivo, po, 1500 mg/kg, 120 h, tissue Plasma, route oral GAVAGE, dose level High, time 5 day, vehicle .5 % CMC

{"columns": ["compound", "LACTATE DEHYDROGENASE"],
 "data": [
  ["CNC(=C[N+](=O)[O-])NCCSCc1ccc(CN(C)C)o1", "426.67 u/L"],
  ["NC(=O)c1cnccn1 [PYRAZINAMIDE]", "177.33 u/L"],
  ["Cc1ccc(S(=O)(=O)NC(=O)NN2CC3CCCC3C2)cc1 (configuration not stated) [GLICLAZIDE]", "168.33 u/L"],
  ["Cc1cc(=O)n(-c2ccccc2)n1C [ANTIPYRINE]", "379.67 u/L"],
  ["CO[C@H]1/C=C/O[C@@]2(C)Oc3c(C)c(O)c4c(c3C2=O)C2=NC3(CCN(CC(C)C)CC3)NC2=C(NC(=O)/C(C)=C\\C=C\\[C@H](C)[C@H](O)[C@@H](C)[C@@H](O)[C@@H](C)[C@H](OC(C)=O)[C@@H]1C)C4=O", "645 u/L"],
  ["C[C@]1(Cn2ccnn2)[C@H](C(=O)O)N2C(=O)C[C@H]2S1(=O)=O", "115.67 u/L"],
  ["O=C(N[C@H](CO)[C@H](O)c1ccc([N+](=O)[O-])cc1)C(Cl)Cl", "180 u/L"]
]}

* * *

- Organism: Rattus norvegicus
- Type: toxicity, organism-based, Sprague-Dawley
- details: in vivo, po, 900 mg/kg, 24 h, tissue Blood, route oral GAVAGE, dose level High, time 1 day, […]
- Description: DrugMatrix - Regimen: Single
measurement.kind: ABSOLUTE MONOCYTE (cells/µL)

{"columns": ["molecular.string", "measurement.kind", "measured.value"],
 "data": [
  ["Clc1ccc(Cl)cc1", "ABSOLUTE MONOCYTE", 80]
]}

* * *

- Species on record: Rattus norvegicus
- protocol.summary: DrugMatrix - Regimen: Daily Repeat
- Format: toxicity, organism-based, Sprague-Dawley
- Set-up: regimen Daily Repeat, gender Male, age 6-8 weeks
- details: in vivo, po, 0 mg/kg, 120 h, tissue Blood, route oral GAVAGE, dose level Control, time 5 day, vehicle .5 % CMC

{"columns": ["compound", "output.unit", "EOSINOPHIL"],
 "data": [
  ["N=C(N)NC(=O)c1nc(Cl)c(N)nc1N [AMILORIDE]", "%", 0],
  ["O=C1CCC(N2C(=O)c3ccccc3C2=O)C(=O)N1 (stereo not given) [THALIDOMIDE]", "%", 0.43],
  ["OC(CCN1CCCCC1)(c1ccccc1)C1CCCCC1 (stereo not given) [TRIHEXYPHENIDYL]", "%", 0.17],
  ["CN1CCC(=C2c3ccccc3C=Cc3ccccc32)CC1 [CYPROHEPTADINE]", "%", 0],
  ["C[C@]1(Cn2ccnn2)[C@H](C(=O)O)N2C(=O)C[C@H]2S1(=O)=O [TAZOBACTAM]", "%", 1],
  ["CC(C)[C@H]1CC[C@H](C(=O)N[C@H](Cc2ccccc2)C(=O)O)CC1 [NATEGLINIDE]", "%", 0.5],
  ["CC[C@@H](CO)NCCN[C@@H](CC)CO [ETHAMBUTOL]", "%", 0],
  ["Cc1onc(-c2ccccc2)c1-c1ccc(S(N)(=O)=O)cc1 [VALDECOXIB]", "%", 1],
  ["O=[N+]([O-])c1ccccc1 [NITROBENZENE]", "%", 0.67],
  ["Clc1ccc2c(c1)C(N1CCNCC1)=Nc1ccccc1O2 [AMOXAPINE]", "%", 0.67],
  ["CO[C@H]1/C=C/O[C@@]2(C)Oc3c(C)c(O)c4c(c3C2=O)C2=NC3(CCN(CC(C)C)CC3)NC2=C(NC(=O)/C(C)=C\\C=C\\[C@H](C)[C@H](O)[C@@H](C)[C@@H](O)[C@@H](C)[C@H](OC(C)=O)[C@@H]1C)C4=O [RIFABUTIN]", "%", 0.17],
  ["CNC(=C[N+](=O)[O-])NCCSCc1ccc(CN(C)C)o1 [RANITIDINE]", "%", 0.17],
  ["C#C[C@]1(O)CC[C@H]2[C@@H]3CCc4cc(OC)ccc4[C@H]3CC[C@@]21C [MESTRANOL]", "%", 0.17],
  ["CN1C(=O)COc2c(C(=O)NC3CN4CCC3CC4)cc(Cl)cc21 (stereo not given) [AZASETRON]", "%", 0.17],
  ["C[C@](O)(CS(=O)(=O)c1ccc(F)cc1)C(=O)Nc1ccc(C#N)c(C(F)(F)F)c1 [(R)-BICALUTAMIDE]", "%", 0.33]
]}
